Origin of measurements: patent US20220064275A1

Subject of test: hGARP-proTGFβ1 complex on cells (human, UniProt Q14392 20-662; P01137 30-390)
Sequence (Q14392 20-662 limits assumed, chain 1 of 2): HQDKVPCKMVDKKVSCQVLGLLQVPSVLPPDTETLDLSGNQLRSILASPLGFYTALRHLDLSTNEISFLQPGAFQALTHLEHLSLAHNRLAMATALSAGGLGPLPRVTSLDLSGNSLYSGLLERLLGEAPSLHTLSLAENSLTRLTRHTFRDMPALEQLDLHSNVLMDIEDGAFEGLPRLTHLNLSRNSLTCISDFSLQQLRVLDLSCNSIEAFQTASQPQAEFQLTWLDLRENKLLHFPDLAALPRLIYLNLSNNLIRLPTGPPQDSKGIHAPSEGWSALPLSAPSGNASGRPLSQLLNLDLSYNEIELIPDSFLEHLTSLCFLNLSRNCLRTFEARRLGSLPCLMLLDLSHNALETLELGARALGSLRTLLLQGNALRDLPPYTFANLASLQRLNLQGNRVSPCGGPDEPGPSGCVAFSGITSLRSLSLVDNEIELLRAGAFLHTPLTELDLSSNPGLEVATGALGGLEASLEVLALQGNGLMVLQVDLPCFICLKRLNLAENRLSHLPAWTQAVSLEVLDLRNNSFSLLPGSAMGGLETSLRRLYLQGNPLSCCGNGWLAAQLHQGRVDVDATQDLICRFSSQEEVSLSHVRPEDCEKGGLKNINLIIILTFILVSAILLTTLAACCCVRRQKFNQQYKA
Sequence (P01137 30-390 limits assumed, chain 2 of 2): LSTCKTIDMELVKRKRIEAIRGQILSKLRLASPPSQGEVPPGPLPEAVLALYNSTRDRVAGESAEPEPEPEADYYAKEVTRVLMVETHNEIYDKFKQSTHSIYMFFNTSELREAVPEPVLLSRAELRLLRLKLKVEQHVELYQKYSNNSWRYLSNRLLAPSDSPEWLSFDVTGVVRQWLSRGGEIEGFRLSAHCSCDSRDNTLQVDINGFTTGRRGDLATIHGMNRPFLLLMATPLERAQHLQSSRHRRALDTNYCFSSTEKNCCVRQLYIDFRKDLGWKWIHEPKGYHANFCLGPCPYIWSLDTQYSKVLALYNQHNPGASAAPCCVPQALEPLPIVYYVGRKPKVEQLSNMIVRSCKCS
Protocol details: cell-based or functional assay
Documented IC50, reporter cell assay of TGFβ1 activation across a set of binders
Readout name: IC50, reporter cell assay of TGFβ1 activation (nM)

Binder	Experimental result
Ab21 (antibody, V domains shown) VH: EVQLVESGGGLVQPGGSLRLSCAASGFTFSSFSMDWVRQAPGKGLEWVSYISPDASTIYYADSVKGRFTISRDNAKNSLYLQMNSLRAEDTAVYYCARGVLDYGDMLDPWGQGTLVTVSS VL: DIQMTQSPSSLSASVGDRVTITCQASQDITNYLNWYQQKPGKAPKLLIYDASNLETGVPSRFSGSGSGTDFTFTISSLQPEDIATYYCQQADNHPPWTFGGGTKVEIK	0.401
Ab5 (antibody, V domains shown) VH: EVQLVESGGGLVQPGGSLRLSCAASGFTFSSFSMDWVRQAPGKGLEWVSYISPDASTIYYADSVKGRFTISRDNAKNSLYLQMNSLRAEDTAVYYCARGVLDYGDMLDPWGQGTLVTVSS VL: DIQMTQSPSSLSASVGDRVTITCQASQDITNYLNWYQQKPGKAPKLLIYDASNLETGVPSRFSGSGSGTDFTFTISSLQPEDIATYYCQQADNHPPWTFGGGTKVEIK	0.14
Ab23 (antibody, V domains shown) VH: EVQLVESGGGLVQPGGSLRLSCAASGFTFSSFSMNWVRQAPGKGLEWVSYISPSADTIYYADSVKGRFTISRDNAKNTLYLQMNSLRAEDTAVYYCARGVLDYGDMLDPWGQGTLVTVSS VL: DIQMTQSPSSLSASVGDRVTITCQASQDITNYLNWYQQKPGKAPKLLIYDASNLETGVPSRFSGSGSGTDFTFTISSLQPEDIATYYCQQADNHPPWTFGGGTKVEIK	0.264
Ab4 (antibody, IgG4, V domains shown, also called parental lead antibody of Ab6) VH: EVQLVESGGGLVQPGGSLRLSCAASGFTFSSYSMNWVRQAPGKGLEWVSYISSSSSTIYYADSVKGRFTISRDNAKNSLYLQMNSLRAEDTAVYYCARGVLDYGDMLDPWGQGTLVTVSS VL: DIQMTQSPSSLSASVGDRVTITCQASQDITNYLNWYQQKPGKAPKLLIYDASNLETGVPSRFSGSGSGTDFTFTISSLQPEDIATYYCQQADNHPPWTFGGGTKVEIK	0.822
